B1: TPR t1 (parent)
chain: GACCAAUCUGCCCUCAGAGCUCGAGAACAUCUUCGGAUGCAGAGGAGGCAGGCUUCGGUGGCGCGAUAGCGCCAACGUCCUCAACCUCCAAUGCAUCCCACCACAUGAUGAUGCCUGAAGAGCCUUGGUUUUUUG

- Variants of: B1
- ASSAY_INFO: polymerase ribozyme fitness, log enrichment relative to wild type (log ratio); higher = more active; in vitro selection for triplet polymerase activity
ASSAY_METRIC: polymerase ribozyme fitness (log ratio)

[
  {
    "MUTATION_STRING": "C40A C89U",
    "polymerase ribozyme fitness (log ratio)": -0.912
  },
  {
    "MUTATION_STRING": "A46C C53A C72A C86A C124G",
    "polymerase ribozyme fitness (log ratio)": 0.771
  },
  {
    "MUTATION_STRING": "C22U G65U C72G C124U",
    "polymerase ribozyme fitness (log ratio)": -5.7
  },
  {
    "MUTATION_STRING": "C11A G48U A66U C72A U96G U112C",
    "polymerase ribozyme fitness (log ratio)": -2.05
  },
  {
    "MUTATION_STRING": "G51A C79G C80G A84C C124G G128C",
    "polymerase ribozyme fitness (log ratio)": -7.76
  },
  {
    "MUTATION_STRING": "C31G C94G G113A",
    "polymerase ribozyme fitness (log ratio)": -5.38
  }
]

Please list polymerase ribozyme fitness (log ratio) recorded for the variant G42A U87A C89U
-2.26

Please list polymerase ribozyme fitness (log ratio) recorded for the variant G61A U78C
-0.183

Please list polymerase ribozyme fitness (log ratio) recorded for the variant C40U C70A C85U G135U
-4.91

Please list polymerase ribozyme fitness (log ratio) recorded for the variant C20G G71C
-5.08

Please list polymerase ribozyme fitness (log ratio) recorded for the variant U33G C124G
-4.16

Please list polymerase ribozyme fitness (log ratio) recorded for the variant G69C A118G
-1.23

Please list polymerase ribozyme fitness (log ratio) recorded for the variant C70U U106A
-0.205

Please list polymerase ribozyme fitness (log ratio) recorded for the variant C56A C62U C114U
-2.3

Please list polymerase ribozyme fitness (log ratio) recorded for the variant A6U G17C
-4.25

Please list polymerase ribozyme fitness (log ratio) recorded for the variant C56A A90U
-1.48

Please list polymerase ribozyme fitness (log ratio) recorded for the variant G71U U81G U112A
-5.24

Please list polymerase ribozyme fitness (log ratio) recorded for the variant A46U U130G
-1.6

Please list polymerase ribozyme fitness (log ratio) recorded for the variant C13A A66U C101A
-4.3

Please list polymerase ribozyme fitness (log ratio) recorded for the variant A16U C123A
-1.57
